- System: Escherichia coli TOP10
- Assay: shrunken log2 fold change of peptide-encoding DNA abundance (4.5 h post-induction vs induction); higher = less antimicrobial activity (less host growth inhibition)
- Assay conditions: time post-induction: 4.5 h; library: site-saturation at positions 5, 18, 19, 20

| Seq | shrunken log2 fold change |
| --- | --- |
| RRIRSRPPRLPRPRPRPQIHPRP | -0.341 |
| RRIRKRPPRLPRPRPRPADVPRP | 0.127 |
| RRIRIRPPRLPRPRPRPSVQPRP | -0.51 |
| RRIRARPPRLPRPRPRPSECPRP | 0.145 |
| RRIRYRPPRLPRPRPRPQEWPRP | -0.000687 |
| RRIRPRPPRLPRPRPRPTTDPRP | 0.0167 |
| RRIRMRPPRLPRPRPRPPWSPRP | 0.596 |
| RRIRERPPRLPRPRPRPPHHPRP | -0.123 |
| RRIRARPPRLPRPRPRPFVNPRP | 0.164 |
| RRIRFRPPRLPRPRPRPIDKPRP | -0.499 |
| RRIRLRPPRLPRPRPRPIYLPRP | -0.654 |
| RRIRSRPPRLPRPRPRPPRCPRP | 0.218 |
| RRIRPRPPRLPRPRPRPDTIPRP | -0.247 |
| RRIRIRPPRLPRPRPRPFSQPRP | -0.52 |
| RRIRVRPPRLPRPRPRPANSPRP | -0.117 |
| RRIRQRPPRLPRPRPRPHYCPRP | -0.0397 |
| RRIRTRPPRLPRPRPRPESWPRP | 0.809 |
| RRIRPRPPRLPRPRPRPILAPRP | 0.273 |
| RRIRPRPPRLPRPRPRPFFTPRP | -0.117 |
| RRIRDRPPRLPRPRPRPMKCPRP | -0.00962 |
| RRIRNRPPRLPRPRPRPQAKPRP | -0.00911 |
| RRIRQRPPRLPRPRPRPHWGPRP | 0.0433 |
| RRIRKRPPRLPRPRPRPSQKPRP | 0.0284 |
| RRIRIRPPRLPRPRPRPPHHPRP | -0.242 |
| RRIRRRPPRLPRPRPRPYCTPRP | -0.24 |
| RRIRGRPPRLPRPRPRPDEWPRP | 0.757 |
| RRIRIRPPRLPRPRPRPRFIPRP | -0.636 |
| RRIRSRPPRLPRPRPRPLCGPRP | 0.0948 |
| RRIRNRPPRLPRPRPRPYVHPRP | -0.253 |
| RRIRMRPPRLPRPRPRPLMHPRP | 0.341 |
| RRIRFRPPRLPRPRPRPGVSPRP | 0.323 |
| RRIRRRPPRLPRPRPRPWTVPRP | -0.00497 |

---

- System: Escherichia coli TOP10;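 further: peptides expressed intracellularly from a pBAD plasmid library in pooled LB shake-flask culture, induced with 0.3% L-arabinose, DNA abundance read by NGS, three biological replicates, DESeq2 with apeglm shrinkage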
- Assay: shrunken log2 fold change of peptide-encoding DNA abundance (4.5 h post-induction vs induction); higher = less antimicrobial activity (less host growth inhibition)
- Assay conditions: time post-induction: 4.5 h; library: site-saturation at positions 5, 18, 19, 20
Measured shrunken log2 fold change accompanies every entry in the list below.

| Seq | Target under test | shrunken log2 fold change |
| --- | --- | --- |
| RRIRERPPRLPRPRPRPLALPRP | Escherichia coli TOP10 | -0.265 |
| RRIRMRPPRLPRPRPRPCHYPRP | Escherichia coli TOP10 | -0.112 |
| RRIRTRPPRLPRPRPRPHDIPRP | Escherichia coli TOP10 | 2.43 |
| RRIRDRPPRLPRPRPRPQGKPRP | Escherichia coli TOP10 | 0.00439 |
| RRIRNRPPRLPRPRPRPIVLPRP | Escherichia coli TOP10 | -0.211 |
| RRIRLRPPRLPRPRPRPRSQPRP | Escherichia coli TOP10 | 0.19 |
| RRIRNRPPRLPRPRPRPTAYPRP | Escherichia coli TOP10 | -0.184 |
| RRIRWRPPRLPRPRPRPDHDPRP | Escherichia coli TOP10 | 0.0812 |
